All figures here come from ChEMBL document CHEMBL1641539.

- SYSTEM_UNDER_TEST: Mitogen-activated protein kinase 10 (Homo sapiens, UniProt P53779)
- Sequence (P53779 whole entry): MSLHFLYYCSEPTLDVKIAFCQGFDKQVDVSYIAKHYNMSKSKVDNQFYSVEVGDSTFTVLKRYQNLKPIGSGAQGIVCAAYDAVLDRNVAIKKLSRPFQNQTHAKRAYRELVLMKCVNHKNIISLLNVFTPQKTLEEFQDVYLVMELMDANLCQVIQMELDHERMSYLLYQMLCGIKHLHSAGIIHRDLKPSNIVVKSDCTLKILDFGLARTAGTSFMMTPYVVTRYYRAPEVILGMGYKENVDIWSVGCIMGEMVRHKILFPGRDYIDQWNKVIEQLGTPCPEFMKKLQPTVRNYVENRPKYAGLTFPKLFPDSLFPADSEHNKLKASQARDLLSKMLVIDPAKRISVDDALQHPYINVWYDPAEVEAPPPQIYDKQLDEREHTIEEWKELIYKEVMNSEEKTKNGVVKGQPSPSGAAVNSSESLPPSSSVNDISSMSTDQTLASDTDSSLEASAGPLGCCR
- ASSAY_INFO: Inhibition of recombinant JNK3 after 60 mins by TR-FRET assay
PROPERTY: IC50 (nM)

[
  {
    "MOLECULE": "O=c1[nH]nc(-c2ccnc(NC3CCC3)c2)n1-c1ccc2ccccc2c1",
    "IC50 (nM)": 70
  }
]

I = O=c1[nH]nc(-c2ccnc(Nc3ccccc3)c2)n1-c1ccc2ccccc2c1
II = CC(=O)Nc1cc(-c2n[nH]c(=O)n2-c2ccc3ccccc3c2)ccn1
Consider I and II . Which of these has its IC50 at a higher number? Your answer should be the label attached to the chosen record.
II
(II: 410 nM, I: 61 nM)

A = COC(=O)N1CCC(n2nc(-c3ccnc(NC4CCOCC4)c3)n(-c3ccc4ccccc4c3)c2=O)CC1
B = C[C@H](Nc1cc(-c2n[nH]c(=O)n2-c2ccc3ccccc3c2)ccn1)c1ccccc1
C = O=c1n(C2CCN(CC(F)(F)F)CC2)nc(-c2ccnc(NC3CCOCC3)c2)n1-c1ccc2ccccc2c1
D = O=c1[nH]nc(-c2ccnc(NC3CCCC3)c2)n1-c1ccc2ccccc2c1
E = O=c1[nH]nc(-c2ccncc2)n1-c1ccc2ccccc2c1
Your job: order these 5 records by IC50, ascending. Ranked list of labels, please, in the requested order.
A, C, D, B, E
(A: 24 nM, C: 36 nM, D: 130 nM, B: 3900 nM, E: 16000 nM)

A = O=c1[nH]nc(-c2ccnc(NC3CCOCC3)c2)n1-c1ccc2cc(F)ccc2c1
B = O=c1[nH]nc(-c2ccnc(NC3CCOCC3)c2)n1-c1ccc2cc(Br)ccc2c1
C = O=c1[nH]nc(-c2ccnc(Nc3nccs3)c2)n1-c1ccc2ccccc2c1
Please give the order of these molecules when sorted by IC50, largest value leading. Ranked list of labels, please, in the requested order.
B, C, A
(B: 430 nM, C: 210 nM, A: 70 nM)
